Provenance of the data: PubChem BioAssay (NCI)

tested on: SK-OV-3 ovarian; assay: NCI-60 one-dose screen, 48 h (100 = growth as untreated, 0 = no growth, -100 = all killed); conditions: 10 µM unless noted
This is part of a sample that, as a whole, favours compounds with a hit. Of some 83,000 tested, about 20% had one in any assay.
Assign class by growth: not lower than 90% means satisfied; lower than 90% means not satisfied.

Determine whether measured growth meets or exceeds 90% for "Cc1ccc(NC(=O)N/C(N)=N/c2nc(=O)c3ccccc3s2)cc1" satisfied

Determine whether measured growth meets or exceeds 90% for "CS(=O)(=O)Nc1cc(-c2ccc3ncnc(Nc4ccc(F)c(Cl)c4)c3c2)cnc1Cl" not satisfied

Determine whether measured growth meets or exceeds 90% for "CN(C)C1CCN(C(=O)c2ccc(NC(=O)Nc3ccc(-c4nc(N5CCOCC5)c5cccn5n4)cc3)cc2)CC1" not satisfied

Determine whether measured growth meets or exceeds 90% for CCCN1C(=O)/C(=c2\sc3n(c2=O)NC2C(N=3)N(CC)C(=O)N2CC)c2ccccc21 (centres undefined) not satisfied

Determine whether measured growth meets or exceeds 90% for "O=S(=O)(O)c1ccc(N=Nc2ccc(N=Nc3cccc4ccccc34)c(S(=O)(=O)O)c2)cc1" not satisfied

Determine whether measured growth meets or exceeds 90% for C#CCOCC1CN(C)C(=O)O1 (centres undefined) satisfied

Determine whether measured growth meets or exceeds 90% for "C=C[C@]1(C)C=C2CC[C@@H]3C(C)(C)C(=O)CC[C@@]3(C)[C@@H]2CC1" satisfied

Determine whether measured growth meets or exceeds 90% for "[2H]C([2H])([2H])Oc1cc(F)ccc1/C=C/C(=O)/C=C(/C=C/c1ccc(F)cc1OC([2H])([2H])[2H])OB(F)F" satisfied

Determine whether measured growth meets or exceeds 90% for "O=[N+]([O-])c1cc(C(F)(F)F)ccc1Sc1ccc(C(F)(F)F)cc1[N+](=O)[O-]" not satisfied

Determine whether measured growth meets or exceeds 90% for N=C1/C(=C2\NC3C=CC=CC3S2)C(c2ccc(Cl)cc2)C2C(=O)N(c3ccccc3)C(=S)N12 (centres undefined) satisfied

Determine whether measured growth meets or exceeds 90% for "COC(=O)N/N=C/c1c[n+]([O-])c2ccccc2[n+]1[O-]" not satisfied

Determine whether measured growth meets or exceeds 90% for "COC(=O)c1nc(-c2ccc(C)cc2)oc1S(=O)(=O)c1ccc(Cl)cc1" satisfied

Determine whether measured growth meets or exceeds 90% for "Nc1ccc(-c2ccc(N)c(Br)c2)cc1Br" not satisfied

Determine whether measured growth meets or exceeds 90% for "O=C1CCCCN1CCCCC#Cc1cccc(C#Cc2cccnc2)c1" satisfied

Determine whether measured growth meets or exceeds 90% for "COc1ccc(Oc2nc(Nc3ccc(N4CCOCC4)cc3)ncc2NC(=O)c2cccc(C(F)(F)F)c2)cc1" not satisfied

Determine whether measured growth meets or exceeds 90% for "COc1ccc(/C=C(\C#N)c2cc3ccccc3[nH]2)cc1" not satisfied
